- test-target: TS5-5 (combined catalytic and disintegrin domain of ADAMTS-5) (Homo sapiens, UniProt Q9UNA0)
- Construct: ADAMTS-5 (i.e. TS5-5, residues 264–555); FLAG; made in house; host or cells: HEK293 cells (previously transfected stocks)
- Sequence (Q9UNA0 264-555): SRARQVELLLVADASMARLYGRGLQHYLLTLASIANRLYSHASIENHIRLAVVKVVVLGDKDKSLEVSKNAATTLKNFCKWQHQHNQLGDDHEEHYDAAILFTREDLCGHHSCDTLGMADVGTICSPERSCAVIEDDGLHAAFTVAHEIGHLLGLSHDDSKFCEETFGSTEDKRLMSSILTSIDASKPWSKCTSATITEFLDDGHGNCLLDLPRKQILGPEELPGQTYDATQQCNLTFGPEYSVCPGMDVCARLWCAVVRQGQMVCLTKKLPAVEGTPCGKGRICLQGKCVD
- assay-explanation: Cleavage of FRET peptide substrates by TS5-5 in solution (activity/selectivity studies)
- Format: biochemical
- assay-conditions: substrate 20 μM, TNC buffer with 0.005% (v/v) Brij-35, 37 °C; mean of 3–4 independent experiments in triplicate
Non-standard residues stand in square brackets, D forms with d. No end group written: not given here. Tyr(3-NO2) = N[C@@H](Cc1ccc(O)c([N+](=O)[O-])c1)C(=O)O; 2Abz = Nc1ccccc1C(=O)O
property-label: rate of cleavage by TS5-5

Some entries whose results are on file:
substance	reading
KY(NO2)QDSESBAK(Abz)JHYUKG [Compound 20]	1.22 × 10^–3 μM s^–1 μM^–1
KY(NO2)NESESKAK(Abz)VHYKKG (K[Tyr(3-NO2)]NESESKAK(2Abz)V-{H2N-Tyr-Lys-Lys-Gly}) [Compound 25]	1.78 × 10^–2 μM s^–1 μM^–1
KY(NO2)TETESOAK(Abz)IYFKKG [Compound 22]	7.38 × 10^–2 μM s^–1 μM^–1

Now let's try a different one.
Any idea what its rate of cleavage by TS5-5 is? The substance is KY(NO2)NDTESOAK(Abz)AHFUKG [Compound 24] 1.41 × 10^–4 μM s^–1 μM^–1
